Read-out: Interferon-gamma inducible Protein 10 (IP10), CXCL10 (gene 3627)
Assay: BSK_KF3CT_IP10: BioMAP Diversity Plus: KF3CT Assay for Interferon-gamma inducible Protein 10 (IP10) Biomarker Activity (AID 2283068)
Conditions: primary human keratinocytes with fibroblasts; actives raise or lower the signal
Method: BSK_KF3CT is a cell-based, multiplexed-readout assay that uses keratinocytes and foreskin fibroblasts, a human skin primary cell co-culture, with measurements taken at 24 hours after chemical dosing in a 96-well plate.BSK_KF3CT_IP10 is an assay component measured in the BSK_KF3CT assay. It measures IP-10 antibody related to regulation of gene expression using ELISA technology.Data from the assay component BSK_KF3CT_IP10 was analyzed into 1 assay endpoint. […]
Activity calls are given as the source filed them. Rule for the calls: active = hit-call score of the fitted dose curve at least 0.9, where 1 is the maximum; inactive = score below 0.9.
Outcome field: choose from active, inactive

{"compound": "O=C(Nc1ccc([N+](=O)[O-])cc1Cl)c1cc(Cl)ccc1O", "category_label": "active"}

With those in mind, consider the next compound.
Exam item: For CCOC(=O)C(C)Oc1ccc(Oc2nc3ccc(Cl)cc3o2)cc1 (configuration not stated) , which call appears in the assay record?
Marked response: inactive
